- ASSAY_SYSTEM: G-protein coupled receptor 35 (Homo sapiens, UniProt Q9HC97)
- Sequence (Q9HC97 whole entry): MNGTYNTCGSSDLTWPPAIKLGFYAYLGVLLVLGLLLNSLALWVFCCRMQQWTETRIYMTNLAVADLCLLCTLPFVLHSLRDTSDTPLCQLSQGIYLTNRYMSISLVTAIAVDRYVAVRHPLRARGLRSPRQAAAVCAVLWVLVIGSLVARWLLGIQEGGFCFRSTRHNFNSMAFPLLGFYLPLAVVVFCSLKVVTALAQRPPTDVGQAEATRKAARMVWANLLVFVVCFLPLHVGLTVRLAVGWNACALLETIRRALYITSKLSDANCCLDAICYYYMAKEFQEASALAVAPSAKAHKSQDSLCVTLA
- ASSAY_EXPLANATION: Agonist activity at GPR35 in human U2OS cells after 1 hr by beta-arrestin GFP reporter gene assay
What EC50 was measured for each of the following?

What value of EC50 has been reported for the following molecule? COc1cccc(OC)c1-c1cc(C(=O)N[C@@H](CC(C)C)C(=O)O)nn1-c1ccnc2cc(Cl)ccc12
> 40 µM

Now let's try a different one.
What value of EC50 has been reported for the following molecule? COc1cccc(OC)c1-c1nc(C(=O)N[C@@H](CC(C)C)C(=O)O)cn1-c1ccnc2cc(Cl)ccc12
> 40 µM

The measurements presented in this section are drawn from ChEMBL document CHEMBL3098058.
